Molecular target: CCK2 receptor (Homo sapiens, UniProt P32239)
Construct: analyzed for ZFP expression as well as CCK2R induction upon addition of doxycycline to the culture medium; endogenous in cells
Sequence (P32239 whole entry): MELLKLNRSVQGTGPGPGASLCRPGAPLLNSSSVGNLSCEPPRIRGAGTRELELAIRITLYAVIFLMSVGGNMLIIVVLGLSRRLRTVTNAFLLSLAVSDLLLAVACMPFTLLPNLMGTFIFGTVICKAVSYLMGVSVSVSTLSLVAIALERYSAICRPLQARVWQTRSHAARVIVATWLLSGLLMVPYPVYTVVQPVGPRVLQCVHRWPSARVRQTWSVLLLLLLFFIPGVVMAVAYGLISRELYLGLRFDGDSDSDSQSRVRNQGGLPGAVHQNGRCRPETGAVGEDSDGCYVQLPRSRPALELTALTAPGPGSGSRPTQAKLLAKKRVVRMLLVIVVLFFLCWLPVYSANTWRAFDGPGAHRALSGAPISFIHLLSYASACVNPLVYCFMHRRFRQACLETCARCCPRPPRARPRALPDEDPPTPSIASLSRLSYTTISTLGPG
Assay: CCK2 binding assay ([125I]-BH-CCK-8S displacement, HEKZFP membranes)
Conditions: membranes of doxycycline-induced HEKZFP cells; 20 pM [125I]-BH-CCK-8S; 60 min at 21±3° C.; read-out: CCK2 pKi (converted)
Readout: Ki (nM)

Solved entries (count: 5):
O=C(N[C@@H](Cc1ccc(Cl)c(Cl)c1)C(=O)NCc1cccc(Cl)c1)c1ccc(Cl)cc1NS(=O)(=O)c1cccc2nsnc12 [Example 128] : 631
C[C@H](CN1C(=O)c2cc(Br)cc(NS(=O)(=O)c3cccc4nsnc34)c2C1=O)c1ccccc1 [Example 13] : 631
O=C(N[C@@H](Cc1ccc(Cl)c(Cl)c1)C(=O)O)c1ccc(I)cc1NS(=O)(=O)c1c(F)cccc1F [Example 32] : 100
O=C(N[C@@H](Cc1ccc(Cl)cc1)C(=O)O)c1ccc(I)cc1NS(=O)(=O)c1c(F)cccc1F [Example 34] : 100
O=C(N[C@@H](Cc1cc(F)c(Cl)cc1Cl)C(=O)O)c1ccc(I)cc1NS(=O)(=O)c1cccc2nsnc12 [Example 134] : 20

I. CC(CNC(=O)c1ccc(I)cc1NS(=O)(=O)c1cccc2nsnc12)c1ccc(Cl)cc1 (centres unmarked) [Example 72]
II. O=C(N[C@@H](Cc1ccc(Cl)c(Cl)c1)C(=O)N1CCCCC1)c1ccc(Cl)cc1NS(=O)(=O)c1cccc2nsnc12 [Example 140]
III. O=C(O)C[C@H](Cc1ccc(Cl)cc1)NC(=O)c1ccc(Cl)cc1NS(=O)(=O)c1cccc2nccnc12 [Example 89]
Prompt line: Order the 3 compounds from highest to lowest Ki. To answer, arrange all of the labels according to the requested order.
Response line: I, II, III
(I: 501 nM, II: 316 nM, III: 63.1 nM)
